Data provenance: patent US20230027361A1

- tested target: PRMT5-MEP50 (Homo sapiens, UniProt O14744)
- Sequence (O14744 whole entry): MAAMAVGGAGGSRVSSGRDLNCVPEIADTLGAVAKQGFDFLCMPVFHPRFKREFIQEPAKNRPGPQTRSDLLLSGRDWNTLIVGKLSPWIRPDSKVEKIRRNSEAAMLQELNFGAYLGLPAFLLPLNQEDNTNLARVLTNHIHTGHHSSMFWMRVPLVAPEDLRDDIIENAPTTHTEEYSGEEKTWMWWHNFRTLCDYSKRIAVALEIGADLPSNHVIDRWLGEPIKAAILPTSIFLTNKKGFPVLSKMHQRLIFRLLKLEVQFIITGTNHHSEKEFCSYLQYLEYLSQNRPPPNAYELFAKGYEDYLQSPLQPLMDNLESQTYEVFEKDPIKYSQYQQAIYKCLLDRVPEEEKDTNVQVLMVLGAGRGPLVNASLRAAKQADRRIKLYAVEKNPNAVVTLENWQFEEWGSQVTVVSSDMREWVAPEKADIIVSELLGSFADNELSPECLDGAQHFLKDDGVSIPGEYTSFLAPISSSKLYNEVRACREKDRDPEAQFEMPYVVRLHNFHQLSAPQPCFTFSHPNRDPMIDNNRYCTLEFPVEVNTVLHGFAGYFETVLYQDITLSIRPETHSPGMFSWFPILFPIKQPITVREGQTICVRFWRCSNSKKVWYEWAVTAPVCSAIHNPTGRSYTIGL
- Sequence (Q9BQA1 whole entry partner): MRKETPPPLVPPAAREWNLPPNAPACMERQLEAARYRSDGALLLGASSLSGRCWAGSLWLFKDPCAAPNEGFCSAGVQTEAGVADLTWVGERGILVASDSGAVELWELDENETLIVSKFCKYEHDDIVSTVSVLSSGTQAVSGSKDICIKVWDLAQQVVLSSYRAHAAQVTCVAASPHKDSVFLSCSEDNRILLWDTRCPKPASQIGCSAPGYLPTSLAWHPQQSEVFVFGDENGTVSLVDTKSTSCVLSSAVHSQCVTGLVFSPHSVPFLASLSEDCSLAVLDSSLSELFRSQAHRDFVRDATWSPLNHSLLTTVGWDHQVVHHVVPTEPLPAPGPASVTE
- assay text: PRMT5 Assay (PRMT5 biochemical assay)
- assay context: PRMT5 biochemical assay; read-out: PRMT5 IC50
pIC50: −log10 of the molar value.
Would you kindly list pIC50 for each of these compounds?

Ask | Please state recorded pIC50 (tested on PRMT5-MEP50 (Homo sapiens, UniProt O14744)) of Nc1ccc2ccc(OC[C@H]3O[C@@H](n4cc(Br)c5c(N)ncnc54)[C@H](O)[C@@H]3O)cc2n1
Reply | > 8.00

Ask | One more compound: Nc1ncnc2c1ccn2[C@@H]1C[C@H](CCc2ccccn2)[C@@H](O)[C@H]1O
Reply | 6.00 to 7.00

Ask | One more compound: Cc1cc2c(N)ncnc2n1[C@@H]1C[C@H](CCc2ccc3ccc(N)nc3c2)[C@@H](O)[C@H]1O
Reply | > 8.00

Ask | One more compound: CNC(=O)Nc1cccc(CC[C@H]2C[C@@H](n3ccc4c(N)ncnc43)[C@H](O)[C@@H]2O)c1
Reply | 6.00 to 7.00

Ask | One more compound: Nc1ncnc2c1ccn2[C@@H]1C[C@H](CCc2ccc3[nH]cnc3c2)[C@@H](O)[C@H]1O
Reply | > 8.00

Ask | One more compound: Nc1ccc2ccc(CC[C@H]3C[C@@H](n4cc(Br)c5c(N)ncnc54)[C@H](O)[C@@H]3O)cc2n1
Reply | > 8.00

Ask | One more compound: CCc1cc(N)c2ccc(OC[C@H]3O[C@@H](n4cc(Br)c5c(N)ncnc54)[C@@H](F)[C@@H]3O)cc2n1
Reply | 6.00 to 7.00

----------
- Tested on: MOLM-13 cells
- assay text: MOLM-13 48 Hour Cell Proliferation Assay
- Assay type: cell-based
- assay context: Homo sapiens
endpoint name: IC50

Ask | Please state recorded IC50 (tested on MOLM-13 cells) of CNc1ccc2ccc(OC[C@H]3O[C@@H](n4cc(-c5cn(C)cn5)c5c(N)ncnc54)[C@@H](F)[C@@H]3O)cc2n1 [I-28]
Reply | 1 to 10 µM

Ask | One more compound: CNc1ccc2ccc(CC[C@H]3O[C@@H](n4cc(C5CCCC5)c5c(N)ncnc54)[C@H](O)[C@@H]3O)cc2n1 [I-39]
Reply | 1 to 10 µM

Ask | One more compound: CNc1ccc2ccc(OC[C@H]3O[C@@H](n4cc(Cl)c5c(N)ncnc54)[C@@H](F)[C@@H]3O)cc2n1 [I-45]
Reply | 1 to 10 µM

Ask | One more compound: CNc1ccc2ccc(OC[C@H]3O[C@@H](n4cc(Cl)c5c(N)ncnc54)C[C@@H]3O)cc2n1 [I-48]
Reply | > 10 µM

Ask | One more compound: CCNc1ccc2ccc(OC[C@H]3O[C@@H](n4cc(-c5cn(C)cn5)c5c(N)ncnc54)[C@@H](F)[C@@H]3O)cc2n1 [I-10]
Reply | 1 to 10 µM

Ask | One more compound: CNc1ccc2ccc(CC[C@H]3C[C@@H](n4ccc5c(N)ncnc54)[C@H](O)[C@@H]3O)cc2n1 [I-123]
Reply | > 10 µM

Ask | One more compound: C=CCc1cn([C@@H]2O[C@H](COc3ccc4ccc(NC)nc4c3)[C@@H](O)[C@H]2O)c2ncnc(N)c12 [I-226]
Reply | < 1 µM

Ask | One more compound: CNc1ccc2ccc(OC[C@H]3O[C@@H](n4cc(CC5CCCC5)c5c(N)ncnc54)[C@H](O)[C@@H]3O)cc2n1 [I-23]
Reply | > 10 µM

Ask | One more compound: CNc1ccc2ccc(OC[C@H]3O[C@@H](n4cc(CC5CC5)c5c(N)ncnc54)[C@H](O)[C@@H]3O)cc2n1 [I-142]
Reply | 1 to 10 µM

Ask | One more compound: CCc1cc(N(C)C)c2ccc(OC[C@H]3O[C@@H](n4cc(-c5ccn(C)n5)c5c(N)ncnc54)[C@@H](F)[C@@H]3O)cc2n1 [I-153]
Reply | 1 to 10 µM

Ask | One more compound: Nc1ncnc2c1ccn2[C@@H]1C[C@H](CCc2ccccn2)[C@@H](O)[C@H]1O [I-118]
Reply | > 10 µM

Ask | One more compound: CCc1cc(N2CCOCC2)c2ccc(OC[C@H]3O[C@@H](n4cc(-c5ccn(C)n5)c5c(N)ncnc54)[C@@H](F)[C@@H]3O)cc2n1 [I-156]
Reply | 1 to 10 µM

Ask | One more compound: CNc1ccc2ccc(OC[C@H]3O[C@@H](n4cc(Br)c5c(N)ncnc54)[C@@H](F)[C@@H]3O)cc2n1 [I-46]
Reply | 1 to 10 µM

Ask | One more compound: CNc1ccc2ccc(OC[C@H]3O[C@@H](n4cc(C5CCCC5)c5c(N)ncnc54)C[C@@H]3O)cc2n1 [I-30]
Reply | 1 to 10 µM

Ask | One more compound: Cn1ccc(-c2cn([C@H]3C[C@H](O)[C@@H](COc4ccc5ccc(NC6CC6)nc5c4)O3)c3ncnc(N)c23)n1 [I-179]
Reply | 1 to 10 µM

Ask | One more compound: CNc1ccc2ccc(OC[C@H]3O[C@@H](n4cc(C5CCCC5)c5c(N)ncnc54)[C@H](O)[C@@H]3O)cc2n1 [I-33]
Reply | 1 to 10 µM

Ask | One more compound: CNc1ccc2ccc(OC[C@H]3O[C@@H](n4cc([C@H]5CCCO5)c5c(N)ncnc54)[C@@H](F)[C@@H]3O)cc2n1 [I-151]
Reply | 1 to 10 µM

Ask | One more compound: Nc1ncnc2c1c(-n1cccn1)cn2[C@H]1C[C@H](O)[C@@H](COc2ccc3ccc(N4CCC4)nc3c2)O1 [I-170]
Reply | 1 to 10 µM

Ask | One more compound: CCc1cc(NCCOC)c2ncc(OC[C@H]3O[C@@H](n4cc(-c5ccn(C)n5)c5c(N)ncnc54)[C@H](O)[C@@H]3O)cc2n1 [I-159]
Reply | > 10 µM

Ask | One more compound: CN(C)c1ccc2ccc(OC[C@H]3O[C@@H](n4ccc5c(N)ncnc54)[C@H](O)[C@@H]3O)cc2n1 [I-78]
Reply | > 10 µM

Ask | One more compound: CN(C)c1ccc2ccc(CC[C@H]3C[C@@H](n4ccc5c(N)ncnc54)[C@H](O)[C@@H]3O)cc2n1 [I-98]
Reply | > 10 µM

Ask | One more compound: Nc1ncnc2c1ccn2[C@@H]1O[C@H](COc2ccc3ccc(N4CCCC4)nc3c2)[C@@H](O)[C@H]1O [I-75]
Reply | > 10 µM

Ask | One more compound: Nc1ncnc2c1c([C@@H]1CCCO1)cn2[C@@H]1O[C@H](COc2ccc3ccc(N4CCC4)nc3c2)[C@@H](O)[C@@H]1F [I-158]
Reply | 1 to 10 µM

Ask | One more compound: CNc1ccc2ccc(OC[C@H]3O[C@@H](n4cc(Br)c5c(N)ncnc54)[C@H](O)[C@@H]3O)cc2n1 [I-73]
Reply | 1 to 10 µM

Ask | One more compound: CNc1ccc2ccc(CC[C@H]3C[C@@H](n4cc(C5CCCC5)c5c(N)ncnc54)[C@H](O)[C@@H]3O)cc2n1 [I-55]
Reply | 1 to 10 µM

Ask | One more compound: CNc1ccc2ccc(OC[C@H]3O[C@@H](n4cc(-c5cccc(C)n5)c5c(N)ncnc54)[C@@H](F)[C@@H]3O)cc2n1 [I-229]
Reply | 1 to 10 µM

Ask | One more compound: CNc1ccc2ccc(OC[C@H]3O[C@@H](n4cc(-c5ccn(C)n5)c5c(N)ncnc54)[C@@H](F)[C@@H]3O)cc2n1 [I-12]
Reply | < 1 µM

Ask | One more compound: Cc1coc(-c2cn([C@@H]3O[C@H](COc4ccc5ccc(N6CCC6)nc5c4)[C@@H](O)[C@@H]3F)c3ncnc(N)c23)n1 [I-220]
Reply | 1 to 10 µM

----------
- tested target: UniProt:O14744
- assay text: PRMT5 Assay (PRMT5 biochemical assay)
endpoint name: IC50

Ask | Please state recorded IC50 (tested on UniProt:O14744) of CN(C)C(=O)c1cn([C@@H]2O[C@H](COc3ccc4ccc(N5CCC5)nc4c3)[C@@H](O)[C@@H]2F)c2ncnc(N)c12 [I-216]
Reply | 100 to 1000 nM

Ask | One more compound: Cn1ccc(-c2cn([C@H]3C[C@H](O)[C@@H](COc4ccc5ccc(N6CCC6)nc5c4)O3)c3ncnc(N)c23)n1 [I-164]
Reply | > 1000 nM

Ask | One more compound: Nc1ncnc2c1c(-n1cccn1)cn2[C@H]1C[C@H](O)[C@@H](COc2ccc3ccc(N4CCC4)nc3c2)O1 [I-170]
Reply | > 1000 nM

Ask | One more compound: CN(CCS(C)(=O)=O)c1ccc2ccc(OC[C@H]3O[C@@H](n4cc(-c5ccn(C)n5)c5c(N)ncnc54)[C@@H](F)[C@@H]3O)cc2n1 [I-166]
Reply | > 1000 nM

Ask | One more compound: CNc1nc2cc(OC[C@H]3O[C@@H](n4cc(-n5cccn5)c5c(N)ncnc54)[C@@H](F)[C@@H]3O)ccc2s1 [I-195]
Reply | > 1000 nM

Ask | One more compound: CN(CCO)c1ccc2ccc(OC[C@H]3O[C@@H](n4cc(-c5ccn(C)n5)c5c(N)ncnc54)[C@@H](F)[C@@H]3O)cc2n1 [I-162]
Reply | > 1000 nM

Ask | One more compound: CNc1ccc2sc(CC[C@H]3O[C@@H](n4cc(-c5ccn(C)n5)c5c(N)ncnc54)[C@@H](F)[C@@H]3O)cc2n1 [I-190]
Reply | 10 to 100 nM
